Biological target: human GCG-R (Homo sapiens, UniProt P47871)
Construct: host or cells: CHO-K1 (cAMP Hunter)
Sequence (P47871 26-477): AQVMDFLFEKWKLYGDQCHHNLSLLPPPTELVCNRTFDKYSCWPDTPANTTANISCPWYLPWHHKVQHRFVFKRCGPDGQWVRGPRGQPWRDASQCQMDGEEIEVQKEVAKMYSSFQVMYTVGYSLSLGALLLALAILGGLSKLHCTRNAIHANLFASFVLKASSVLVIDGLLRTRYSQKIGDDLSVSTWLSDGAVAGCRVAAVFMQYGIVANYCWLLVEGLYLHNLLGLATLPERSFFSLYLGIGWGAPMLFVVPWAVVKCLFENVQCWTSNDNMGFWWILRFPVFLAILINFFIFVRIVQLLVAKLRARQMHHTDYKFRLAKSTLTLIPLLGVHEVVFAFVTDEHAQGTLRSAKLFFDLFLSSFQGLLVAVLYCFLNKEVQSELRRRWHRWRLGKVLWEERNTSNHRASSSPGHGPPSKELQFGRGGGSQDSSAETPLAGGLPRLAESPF
Assay: Cyclic AMP (cAMP) assay, cell-suspension format, stably expressed human GCG-receptor in CHO cells
Format: cell-based
Details: Table 1, cAMP, CHO cells
Protocol: On the day of the experiment, the medium was removed and the cell monolayer was washed with 10 mL phosphate buffered saline (PBS) per flask. […] The flask was gently tapped and the cell suspension was pooled. […] The cell pellet was resuspended in assay buffer and cell number determined. […] The reaction was stopped by addition of lysis buffer and cAMP generated was determined using the cAMP dynamic 2 kit from Cisbio following the manufacturer's instructions. […] Data were analyzed using Excel Fit software.
Starred links: 1 amine or outer side, 2 acyl side, 3 side chain; linkers in the order of their positions; H or OH if unused. Positions of bridges follow the written chain, without caps; N, C: chain ends. Non-standard residues stand in square brackets, D forms with d. Groups on a side chain read outwards from the residue. Chains are numbered I, II in the order given. *: point of attachment. γGlu = O=C(O)[C@H](CCC(=O)[*:2])N[*:1]; Palmitoyl = CCCCCCCCCCCCCCCC(=O)*; X1 = O=C(C[*:1])[*:2]; Aib = CC(C)(N)C(=O)O
metric: EC50 (nM)

[
  {
    "substance": "I: H-Y[Aib]EGTFTSDK([γGlu-γGlu-Palmitoyl])SIYLDKQAA[Aib]EFVNWLLAGGPSSGAPPPSC-NH2 / II: GGGLPETGGSGS-OH (linker I:40-II:N via X1) [compound 9]",
    "observed.result": 8.86
  }
]

Cited source: patent US10137170B2
